This collection of values is drawn from paper PMC10818749.

# assay.target: CHO-KCNQ1/minK (Homo sapiens, UniProt P15382+P51787)
# run.conditions: read-out: Estimated IC50 (reference compound); antagonist mode; Qube APC (1 conc.)
measurement.kind: pIC50
Answers are plain numbers, as −log10 of the molar value.

Problem: Annotate the molecule CCS(=O)(=O)N(C)[C@H]1c2cc(C#N)ccc2OC(C)(C)[C@@H]1O (racemic) [Chromanol 293B, reference compound] with its measured pIC50.
Solution: 4.67

---

# assay.target: HEK-Kv4.3/KChIP2 (Homo sapiens, UniProt Q9NS61+Q9UK17)
# Sequence (Q9UK17 whole entry): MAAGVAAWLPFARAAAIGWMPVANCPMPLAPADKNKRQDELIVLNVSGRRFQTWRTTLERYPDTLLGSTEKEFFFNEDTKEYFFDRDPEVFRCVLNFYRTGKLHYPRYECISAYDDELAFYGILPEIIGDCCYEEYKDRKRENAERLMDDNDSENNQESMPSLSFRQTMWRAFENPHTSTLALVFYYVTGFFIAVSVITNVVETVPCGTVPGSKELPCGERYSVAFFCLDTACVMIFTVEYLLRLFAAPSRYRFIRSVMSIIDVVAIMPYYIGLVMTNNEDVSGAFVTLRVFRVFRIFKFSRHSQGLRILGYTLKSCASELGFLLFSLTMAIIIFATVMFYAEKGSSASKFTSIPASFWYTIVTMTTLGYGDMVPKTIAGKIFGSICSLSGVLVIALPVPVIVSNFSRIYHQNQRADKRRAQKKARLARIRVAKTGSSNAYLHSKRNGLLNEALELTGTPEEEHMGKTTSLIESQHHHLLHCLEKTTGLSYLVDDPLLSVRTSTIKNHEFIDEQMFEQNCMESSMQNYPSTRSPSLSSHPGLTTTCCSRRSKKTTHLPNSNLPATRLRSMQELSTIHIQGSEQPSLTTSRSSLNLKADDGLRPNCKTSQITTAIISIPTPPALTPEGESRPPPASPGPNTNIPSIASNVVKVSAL
# Sequence (Q9NS61 whole entry partner): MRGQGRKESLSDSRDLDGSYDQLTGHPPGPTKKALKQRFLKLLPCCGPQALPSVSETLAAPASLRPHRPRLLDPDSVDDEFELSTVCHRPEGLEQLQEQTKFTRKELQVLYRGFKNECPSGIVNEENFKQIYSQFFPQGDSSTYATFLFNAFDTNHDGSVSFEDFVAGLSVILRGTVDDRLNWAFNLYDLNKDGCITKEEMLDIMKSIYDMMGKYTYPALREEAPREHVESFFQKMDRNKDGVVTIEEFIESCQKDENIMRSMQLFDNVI
# assay.overview: cell-based
measurement.kind: pIC50
Give bare numbers, as −log10 of the molar value.

Problem: Annotate the molecule O=C(NCC1CCCCN1)c1cc(OCC(F)(F)F)ccc1OCC(F)(F)F (stereo not shown) [Flecainide] with its measured pIC50.
Solution: 4.90
